ASSAYED SYSTEM: T1, human mesothelin (recombinant, soluble, purified; 40 kDa C-terminal polypeptide of the mesothelin precursor) (human, UniProt Q13421 296-598, limits assumed)
T1 construct: also called soluble mesothelin
T1 sequence (Q13421 other isoform, or with tags, fused parts or gaps limits assumed): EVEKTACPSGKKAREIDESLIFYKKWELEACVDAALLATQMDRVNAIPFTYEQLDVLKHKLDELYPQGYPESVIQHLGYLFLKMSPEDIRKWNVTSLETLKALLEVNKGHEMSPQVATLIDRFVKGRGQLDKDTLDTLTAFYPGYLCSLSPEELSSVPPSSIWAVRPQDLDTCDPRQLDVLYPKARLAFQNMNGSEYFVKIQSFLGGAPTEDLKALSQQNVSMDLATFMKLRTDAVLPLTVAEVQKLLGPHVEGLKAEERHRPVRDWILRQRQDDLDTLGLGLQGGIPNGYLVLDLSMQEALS
METHOD SUMMARY: SPR (Biacore), Fab on directly immobilized mesothelin
hey, just use class 1 if measured Kd is less than 20 nM, otherwise class 0

Strictly below 20 nM in Kd? MF-226 Fab (Fab, V domains shown, Purified Fab) VH: QVELVQSGAEVKKPGASVKVSCKASGYTFTGNYINWVRQAPGQGLEWMGIINPHGGDTKYAQKFQGRVTMTRDTSISTAYMELSSLRSEDTAVYYCARWHHGTWIFDYWGQGTLVTVSS VL: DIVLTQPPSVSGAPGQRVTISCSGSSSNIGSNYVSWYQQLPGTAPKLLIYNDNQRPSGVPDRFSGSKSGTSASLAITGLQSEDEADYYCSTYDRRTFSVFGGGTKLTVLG
class 0

Strictly below 20 nM in Kd? MOR06657 Fab (Fab, V domains shown, Purified Fab) VH: QVQLVQSGAEVKKPGSSVKVSCKASGGTFSSYYFSWVRQAPGQGLEWMGGIIPKFGSANYAQKFQGRVTITADESTSTAYMELSSLRSEDTAVYYCARRTSMDYWGQGTLVTVSS VL: DIALTQPASVSGSPGQSITISCTGTSSDVGGYNYVSWYQQHPGKAPKLMIYSVSKRPSGVSNRFSGSKSGNTASLTISGLQAEDEADYYCATWDHSQMGKVFGGGTKLTVLG
class 1

Strictly below 20 nM in Kd? MOR06626 Fab (Fab, V domains shown, Purified Fab) VH: QVQLVQSGAEVKKPGASVKVSCKASGYTFTGNYINWVRQAPGQGLEWMGIINPTKGWTLYAQKFQGRVTMTRDTSISTAYMELSSLRSEDTAVYYCARWHHGTWIFDYWGQGTLVTVSS VL: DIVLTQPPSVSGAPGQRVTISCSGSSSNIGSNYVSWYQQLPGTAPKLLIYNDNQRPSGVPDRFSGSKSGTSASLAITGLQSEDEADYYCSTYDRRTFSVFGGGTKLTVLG
class 1

Strictly below 20 nM in Kd? MF-J Fab (Fab, V domains shown, Purified Fab) VH: QVELVQSGAEVKKPGESLKISCKGSGYSFTNYWIGWVRQMPGKGLEWMGVIMPSDSYTRYSPSFQGQVTISADKSISTAYLQWSSLKASDTAMYYCARYGHGMYGGALDVWGQGTLVTVSS VL: DIVLTQSPATLSLSPGERATLSCRASQSVRSSRLAWYQQKPGQAPRLLIYGASKRATGVPARFSGSGSGTDFTLTISSLEPEDFATYYCQQYYDFPPTFGQGTKVEIKR
class 1

Strictly below 20 nM in Kd? MOR06638 Fab (Fab, V domains shown, Purified Fab) VH: QVQLVQSGAEVKKPGASVKVSCKASGYTFTGNYINWVRQAPGQGLEWMGIINPHGGDTKYAQKFQGRVTMTRDTSISTAYMELSSLRSEDTAVYYCARWHHGTWIFDYWGQGTLVTVSS VL: DIVLTQPPSVSGAPGQRVTISCSGSSSNIGSNYVSWYQQLPGTAPKLLIYNDNQRPSGVPDRFSGSKSGTSASLAITGLQSEDEADYYCSSWDRADGSYVFGGGTKLTVLG
class 1

The values you see were collected from patent US20180258181A1.
